Test system: SF-295
Test: NCI tumour cell line growth inhibition, 48 h
The source made the active and inactive calls. No stated cut-off is given here; in the data, active = GI50 up to about 1.1 µM and inactive = higher.
readout.type: GI50

Previously resolved entries follow.
# molecule, measured.on, readout.type, recorded.result
measured = [
    ("CCN(CC)c1c(C)c(C(=O)OC)nn1-c1ccccc1", "SF-295", "GI50", "> 83.6 µM (inactive)"),
    ("O=C(NCc1ccncc1)C1COc2cc(-c3cc(=O)c4ccccc4o3)ccc2O1 (stereo not given)", "SF-295", "GI50", "> 100 µM (inactive)"),
    ("O=C(NCCCCCCO)c1cccc2cc3ccccc3nc12", "SF-295", "GI50", "16.7 µM (inactive)"),
    ("COC(=O)C1C/C(=C/N(C)C)C(=S)N1 (stereo not given)", "SF-295", "GI50", "> 100 µM (inactive)"),
]

Please examine the following record next.
Quick check: GI50 of CCCCCCC(=O)C/C(CCC(=O)N(Cc1ccccc1)Cc1ccccc1)=N\NC(N)=O ?
> 100 µM (inactive)

meta.source: ChEMBL document CHEMBL1201862
